# ASSAY SYSTEM: T1, Human BCMA (B Cell Maturation Antigen) (human, UniProt Q02223 1-184)
# T1 sequence: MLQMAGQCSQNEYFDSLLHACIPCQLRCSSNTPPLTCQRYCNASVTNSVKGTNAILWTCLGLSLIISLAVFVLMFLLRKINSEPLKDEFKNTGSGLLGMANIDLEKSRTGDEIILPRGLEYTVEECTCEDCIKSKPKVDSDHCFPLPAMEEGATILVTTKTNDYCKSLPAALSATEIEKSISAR
# ASSAY PROCEDURE: cell-based or functional assay
READOUT TYPE: EC50 of cell viability (CellTiter-Glo 2.0), NCI-H929 (BCMA-positive) cells, 120-hour assay (nM)
One number for each entry, in nM.

So what's the measured EC50 of cell viability (CellTiter-Glo 2.0), NCI-H929 (BCMA-positive) cells, 120-hour assay for this one? anti-BCMA-AB1-Compound 52 (antibody, human IgG1, V domains shown, drug-linker Compound 52 on antibody cysteine thiols (C-lock linkage; positions not stated)) VH: EVQLVESGGGLVKPGGSLRLSCAASGFTSSTAWMSWVRQAPGKGLEWVGRIKSKSDGGTTDYAAPVKGRFTISRDDSKNTLFLQMNSLKTEDTAVYYCAKGGGTYGYWGQGTTVTVSS VL: QSVLTQPASVSGSPGQSVTISCTGTSSAHGGHYYVSWYQQHPGKAPKLMIYDVSNRPSGVSNRFSGSKSGNTASLTISGLQAEDEADYYCGSYTSSGSYVFGTGTKLTVL 0.169
